Recorded values, source PubChem BioAssay.

# target-desc: L-lactate dehydrogenase (Plasmodium falciparum (isolate CDC / Honduras))
# method-notes: PfLDH activity inhibition – cell lysate, 3D7 strain, counter-screen for P. falciparum growth inhibition project (AID 2304);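 also: 0% = vehicle and 100% = reference inhibitor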
# measurement-conditions: P. falciparum 3D7 crude extract, LDH APAD/NBT absorbance; at 2 µM; hits give high values
Activity calls are given as the source filed them. No rule for the calls is given here.
Task for the reader: assign each of the following molecules its reported inhibition.

What inhibition value was documented for this molecule, `Cc1ccc2nc(C)cc(NN=Cc3ccccc3[N+](=O)[O-])c2c1` ? -1% (inactive)

What inhibition value was documented for this molecule, CS(=O)(=O)N1CC2(CCN(CCC(NC(=O)NCc3ccc(Cl)c(Cl)c3)c3ccc(Cl)c(Cl)c3)CC2)c2ccccc21 (centres undefined) ? -8% (inactive)

What inhibition value was documented for this molecule, `Clc1ccc(CNC2CCN(CC3CCCCC3)CC2)cc1` ? 5% (inactive)

What inhibition value was documented for this molecule, COc1ccccc1C1CCN(C2CCC(NC(=O)/C=C/c3ccc(OC(F)(F)F)cc3)CC2)CC1 (centres undefined) ? -3% (inactive)

What inhibition value was documented for this molecule, `Cc1cccc(-c2nc3cc(NC(=O)c4ccc([N+](=O)[O-])o4)ccc3o2)c1` ? 4% (inactive)

What inhibition value was documented for this molecule, `O=C(/C=C/c1cccc(C(F)(F)F)c1)NCCCCCN1CCC(c2c[nH]c3ccccc23)CC1` ? 0% (inactive)

What inhibition value was documented for this molecule, `c1cc(CN2CCN(c3ccncc3)CC2)cc(-c2ccc(-c3nc4ccccc4[nH]3)cc2)c1` ? -11% (inactive)

What inhibition value was documented for this molecule, `CCc1[nH]nc(C(=O)NC2CCN(CC3(c4ccc(OC)cc4)CCCCC3)CC2)c1C` ? -1% (inactive)

What inhibition value was documented for this molecule, `CN1CCN(CCCN(Cc2cccc(-c3ccc(CNCCc4ccccc4)cc3)c2)C(=O)Nc2ccccc2)CC1` ? 3% (inactive)

What inhibition value was documented for this molecule, `CCc1ccc2nc(-c3ccc(F)cc3)nc(SCC(=O)Nc3sc(C)c(C)c3C#N)c2c1` ? 1% (inactive)

What inhibition value was documented for this molecule, `NC(N)=Nc1nc(-c2cc(NC(=O)C(F)(F)F)cc([N+](=O)[O-])c2)cs1` ? 5% (inactive)

What inhibition value was documented for this molecule, `COc1cccc(OC)c1OCCCON1C(N)=NC(N)=NC1(C)C` ? 1% (inactive)

What inhibition value was documented for this molecule, CCN(CC)CCOc1ccc(C(O)(C#CC(O)(c2ccc(Br)cc2)c2ccc(OCCN(CC)CC)cc2)c2ccc(Br)cc2)cc1 (centres undefined) ? 7% (inactive)

What inhibition value was documented for this molecule, `CCn1cnc2c(N3CCCCS3(=O)=O)cc(C(=O)N[C@@H](Cc3ccccc3)[C@H](O)CNC3CCOCC3)cc21` ? 6% (inactive)

What inhibition value was documented for this molecule, `COc1cc(NC(=O)c2sc(-c3ccc(Cl)cc3)cc2NC(=O)N2CCCC2)ccc1OCCN1CCCC1` ? 0% (inactive)

What inhibition value was documented for this molecule, `CS(=O)(=O)c1cccc(-c2cnc(N)c3cc(-c4cccc(F)c4)ccc23)c1` ? 2% (inactive)

What inhibition value was documented for this molecule, `O=C(Nc1ccc(N2CCCCC2)c(Cl)c1)c1ccc(Br)o1` ? -1% (inactive)

What inhibition value was documented for this molecule, `c1ccc(CN2CCC(NCc3cccc(-c4cncc5ccccc45)c3)CC2)cc1` ? 3% (inactive)

What inhibition value was documented for this molecule, `CC1(C)N=C(NC(=O)c2cc([N+](=O)[O-])cc([N+](=O)[O-])c2)N=C(N)N1OCc1cccc2ccccc12` ? -6% (inactive)
